Reported values of switch fluorescence ratio for individual entries
# Test system: ATP;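 also: ATP exposure 15 min at 22 °C before imaging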
# ASSAY_SUMMARY: switch fluorescence ratio, 500 uM ATP over buffer (Cy3 cluster intensity, sum of 5 cycles each) (fold (ratio)); higher = stronger signal-on switching upon ATP binding; sequences stand for … in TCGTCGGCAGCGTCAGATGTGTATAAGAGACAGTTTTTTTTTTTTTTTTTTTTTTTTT…TC
# COND: aptamer strand: ATP DNA aptamer (quencher-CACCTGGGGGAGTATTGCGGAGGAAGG + anchor), 100 nM annealed; ATP concentration: 500 uM
Note: the reply should be a number with no unit written.

Below: 3 sequences and their reported switch fluorescence ratio.
1. AATAGGGCG 1.04
2. GGCCTGGATC 1.02
3. GCCAAAGGGA 1.01

Enter measured switch fluorescence ratio, system ATP, for the sequence shown: TCTGGTTGGA;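 also: ATP exposure 15 min at 22 °C before imaging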
1.04

Enter measured switch fluorescence ratio, system ATP, for the sequence shown: GTGGGCGGCC;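 also: ATP exposure 15 min at 22 °C before imaging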
0.99

Enter measured switch fluorescence ratio, system ATP, for the sequence shown: ATTCACTCGG;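 also: ATP exposure 15 min at 22 °C before imaging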
1.38

Enter measured switch fluorescence ratio, system ATP, for the sequence shown: GGGGTTGTGT;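 also: ATP exposure 15 min at 22 °C before imaging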
0.996
